# protocol_text: Solubility of dye in PGMEA
# Assay type: physicochemical
# measurement_parameters: solvent PGMEA
attribute_measured: Solubility in PGMEA (wt %)

Per the record, Cc1cc(C)c(Nc2ccc(Nc3c(C)cc(O)cc3C)c3c2C(=O)c2ccccc2C3=O)c(C)c1 has Solubility in PGMEA of 2.8

I = Cc1cc(C)c(Nc2ccc(Nc3c(C)cc(OCC(O)COc4ccc(C(C)(C)c5ccc(OCC(O)COc6cc(C)c(Nc7ccc(Nc8c(C)cc(C)cc8C)c8c7C(=O)c7ccccc7C8=O)c(C)c6)cc5)cc4)cc3C)c3c2C(=O)c2ccccc2C3=O)c(C)c1 (stereo not shown)
II = Cc1cc(C)c(Nc2ccc(Nc3c(C)cc(C)cc3C)c3c2C(=O)c2ccccc2C3=O)c(C)c1
III = CC(C)Nc1ccc(NC(C)C)c2c1C(=O)c1ccccc1C2=O
[Q] Arrange items by their Solubility in PGMEA values in increasing order. Reply: labels, ordered per the request.
[A] II, III, I

----------
# protocol_text: Thermal stability of films (chromaticity difference ΔEab before/after hard baking)
# Format: physicochemical
# measurement_parameters: film with alkaline soluble acrylic resin, hard bake 230° C. under air 1 h
attribute_measured: ΔEab after baking at 230° C. for 1 h

Per the record, Cc1cc(C)c(Nc2ccc(Nc3c(C)cc(C)cc3C)c3c2C(=O)c2ccccc2C3=O)c(C)c1 has ΔEab after baking at 230° C. for 1 h of 7.9

I = Cc1cc(C)c(Nc2ccc(Nc3c(C)cc(O)cc3C)c3c2C(=O)c2ccccc2C3=O)c(C)c1
II = Cc1cc(C)c(Nc2ccc(Nc3c(C)cc(OCC(O)COc4ccc(C(C)(C)c5ccc(OCC(O)COc6cc(C)c(Nc7ccc(Nc8c(C)cc(C)cc8C)c8c7C(=O)c7ccccc7C8=O)c(C)c6)cc5)cc4)cc3C)c3c2C(=O)c2ccccc2C3=O)c(C)c1 (stereo not shown)
[Q] // which entry reports the smaller ΔEab after baking at 230° C. for 1 h, I or II ? Give the chosen item's label as your response.
[A] II
(II: 2.3, I: 6.8)
